Target: T1, human C-KIT-Fc (human, UniProt P10721 26-524)
T1 construct: also called biotinylated human C-KIT-Fc; not shown: Fc part not described
Experiment: direct ELISA at 1 µg/ml
OD450 nm values, listed per item

In the examples that follow, each entry is paired with its recorded OD450 nm.
{"columns": ["binder", "metric name", "measured result"],
 "data": [
  ["E-C2 (antibody, IgG1, V domains shown, IgG1; also called C-KIT-E-C2) VH: QVQLVQSGAEVKKPGASVKVSCKASGYTFTDYYMNWVRQAPGQGLEWMGRIYPGSGNTYYAQKFQGRVTMTRDTSTSTVYMELSSLRSEDTAVYYCARGVYYLDYWGQGTLVTVSS VL: DIQMTQSPSSLSASVGDRVTITCRASQGIRTNVAWLQQKPGKAPKSLIYSASYRQSGVPSRFSGSGSGTDFTLTISSLQPEDFATYYCQQYNSYPRTFGGGTKVEIK", "OD450 nm", "> 1.8 OD450 nm"],
  ["humanized h37M, human IgG1 (antibody, V domains shown, human IgG1; terbium-labelled as the tracer of the HTRF assays; also called C-KIT-h37M; h37M-IgG1) VH: QVQLVQSGAEVKKPGASVKLSCKASGYTFTDYYINWVRQAPGKGLEWIARIYPGSGNTYYNEKFKGRATLTADKSTSTAYMQLSSLRSEDTAVYFCARGVYYFDYWGQGTTVTVSS VL: DIVMTQSPSSLSASVGDRVTITCKASQNVRTNVAWYQQKPGKAPKALIYSASYRYSGVPDRFTGSGSGTDFTLTISSLQPEDFADYFCQQYNSYPRTFGGGTKVEIK", "OD450 nm", "> 1.8 OD450 nm"]
]}

Now consider a different binder.
INPUT: Tell us which OD450 nm value is on record for MH5.22 (antibody, IgG1, V domains shown, IgG1; also called C-KIT-MH5.22) VH: QVQLVQSGAEVKKPGASVKVSCKASGYTFTDFYMNWVRQAPGQGLEWMGRIYPASGNTYYAQKFQGRVTMTRDTSTSTVYMELSSLRSEDTAVYYCARGVWYYDYWGQGTLVTVSS VL: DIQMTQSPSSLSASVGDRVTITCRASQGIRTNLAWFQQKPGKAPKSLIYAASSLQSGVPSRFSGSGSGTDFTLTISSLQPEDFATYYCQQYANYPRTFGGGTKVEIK
OUTPUT: > 1.8 OD450 nm
